Test: Pharmacokinetics: plasma concentrations of prodrug and propofol after intravenous infusion (LC/MS/MS)
Conditions: analyte = administered compound; rat plasma, IV infusion
Protocol: Blood samples were to be taken pre-dose, during dose and post dose at designated intervals, with the blood quickly processed and stored at −70° C. until analysis. Formulations were prepared on the morning of the dosing day and each was passed through a 0.22 μm filter prior to being administered to animals. […] For each, a minimum of 6 standard point curve runs in duplicates, and minimum of 5 standards were back calculated to within ±20% of their nominal concentrations. […]
Reported Cmax is given for each of the following compounds.
The reply should be a number in µM, with the unit left off.

>>> endpoint_result("CC(C)c1cccc(C(C)C)c1OC(=O)OCCO[C@@H]1O[C@H](CO)[C@@H](OC2O[C@H](CO)[C@@H](O)[C@H](O)[C@H]2O)[C@H](O)[C@H]1O (some centres unmarked)")
8.1

### Prompt Which Cmax reading was recorded for the compound CC(C)c1cccc(C(C)C)c1OC(=O)OCCCO[C@@H]1O[C@H](CO)[C@@H](OC2O[C@H](CO)[C@@H](O)[C@H](O)[C@H]2O)[C@H](O)[C@H]1O (some centres unmarked) ?
### Response 68.4

---

Assay: Pharmacokinetics: plasma concentrations of prodrug and propofol after intravenous infusion (LC/MS/MS)
Conditions: analyte = administered compound; volume of distribution
Reported Vdss is given for each of the following molecules.
The reply should be a number in L/kg, with the unit left off.

>>> endpoint_result("CC(C)c1cccc(C(C)C)c1O [Propofol, 2,6-diisopropylphenol, reference compound]")
61.2
>>> endpoint_result("CC(C)c1cccc(C(C)C)c1OC(=O)OCCO[C@@H]1O[C@H](CO)[C@@H](OC2O[C@H](CO)[C@@H](O)[C@H](O)[C@H]2O)[C@H](O)[C@H]1O (stereo partly shown) [Compound 24]")
120
>>> endpoint_result("CC(C)c1cccc(C(C)C)c1OC(=O)OCCCO[C@@H]1O[C@H](CO)[C@@H](OC2O[C@H](CO)[C@@H](O)[C@H](O)[C@H]2O)[C@H](O)[C@H]1O (stereo partly shown) [Compound 25]")
1.51

Moving on to another molecule below.
### Prompt Which Vdss reading was recorded for the molecule CC(C)c1cccc(C(C)C)c1OC(=O)NCCO[C@@H]1O[C@H](CO)[C@@H](O)[C@H](O)[C@H]1O [Compound 17] ?
### Response 0.657

---

Reported MRTinf is given for each of the following compounds.
Assay: Pharmacokinetics: plasma concentrations of prodrug and propofol after intravenous infusion (LC/MS/MS)
Conditions: analyte = administered compound; extrapolated to infinity
The reply should be a number in min, with the unit left off.

Guide cases for MRTinf, answers given:
>>> endpoint_result("CC(C)c1cccc(C(C)C)c1OC(=O)OCCCO[C@@H]1O[C@H](CO)[C@@H](O)[C@H](O)[C@H]1O")
6
>>> endpoint_result("CC(C)c1cccc(C(C)C)c1OC(=O)OCCCO[C@@H]1O[C@H](CO)[C@@H](OC2O[C@H](CO)[C@@H](O)[C@H](O)[C@H]2O)[C@H](O)[C@H]1O (some centres unmarked)")
4.62
>>> endpoint_result("CC(C)c1cccc(C(C)C)c1OC(=O)OCCO[C@@H]1O[C@H](CO)[C@@H](OC2O[C@H](CO)[C@@H](O)[C@H](O)[C@H]2O)[C@H](O)[C@H]1O (some centres unmarked)")
12.4

### Prompt Which MRTinf reading was recorded for the compound CC(C)c1cccc(C(C)C)c1O [Propofol, 2,6-diisopropylphenol, reference compound] ?
### Response 209

### Prompt And what about the compound `CC(C)c1cccc(C(C)C)c1OC(=O)NCCO[C@@H]1O[C@H](CO)[C@@H](O)[C@H](O)[C@H]1O` ?
### Response 16.6

---

Assay: Pharmacokinetics: plasma concentrations of prodrug and propofol after intravenous infusion (LC/MS/MS)
Conditions: analyte = administered compound; total body clearance, dose/AUCinf
Procedure: Blood samples were to be taken pre-dose, during dose and post dose at designated intervals, with the blood quickly processed and stored at −70° C. until analysis. Formulations were prepared on the morning of the dosing day and each was passed through a 0.22 μm filter prior to being administered to animals. […] For each, a minimum of 6 standard point curve runs in duplicates, and minimum of 5 standards were back calculated to within ±20% of their nominal concentrations. […]
RECORDED_METRIC: CLp (mL/min/kg)
The reply should be a number in mL/min/kg, with the unit left off.

>>> endpoint_result("CC(C)c1cccc(C(C)C)c1OC(=O)OCCO[C@@H]1O[C@H](CO)[C@@H](OC2O[C@H](CO)[C@@H](O)[C@H](O)[C@H]2O)[C@H](O)[C@H]1O (stereo partly shown)")
5804
>>> endpoint_result("CC(C)c1cccc(C(C)C)c1OC(=O)NCCO[C@@H]1O[C@H](CO)[C@@H](O)[C@H](O)[C@H]1O")
39.1
>>> endpoint_result("CC(C)c1cccc(C(C)C)c1O [Propofol, 2,6-diisopropylphenol, reference compound]")
264.7

### Prompt Which CLp reading was recorded for the compound CC(C)c1cccc(C(C)C)c1OC(=O)OCCCO[C@@H]1O[C@H](CO)[C@@H](OC2O[C@H](CO)[C@@H](O)[C@H](O)[C@H]2O)[C@H](O)[C@H]1O (stereo partly shown) ?
### Response 337

---

Assay: Pharmacokinetics: plasma concentrations of prodrug and propofol after intravenous infusion (LC/MS/MS)
Conditions: analyte = administered compound; extrapolated to infinity
RECORDED_METRIC: log10 AUCinf (log10 of the value in µM·h)
Recorded AUCinf (log10, µM·h)

Guide cases for log10 AUCinf, answers given:
>>> endpoint_result("CC(C)c1cccc(C(C)C)c1OC(=O)OCCO[C@@H]1O[C@H](CO)[C@@H](OC2O[C@H](CO)[C@@H](O)[C@H](O)[C@H]2O)[C@H](O)[C@H]1O (some centres unmarked)")
-0.10
>>> endpoint_result("CC(C)c1cccc(C(C)C)c1O [Propofol, 2,6-diisopropylphenol, reference compound]")
1.10
>>> endpoint_result("CC(C)c1cccc(C(C)C)c1OC(=O)NCCO[C@@H]1O[C@H](CO)[C@@H](O)[C@H](O)[C@H]1O")
1.86

### Prompt Which log10 AUCinf reading was recorded for the compound `CC(C)c1cccc(C(C)C)c1OC(=O)OCCCO[C@@H]1O[C@H](CO)[C@@H](O)[C@H](O)[C@H]1O` ?
### Response -2.91

### Prompt And what about the compound CC(C)c1cccc(C(C)C)c1OC(=O)OCCCO[C@@H]1O[C@H](CO)[C@@H](OC2O[C@H](CO)[C@@H](O)[C@H](O)[C@H]2O)[C@H](O)[C@H]1O (some centres unmarked) ?
### Response 0.93

---

Assay: Solubility determination in D2O by 1H NMR with DSS internal standard
Conditions: D2O, water, thermodynamic from solid
Reported solubility is given for each of the following molecules.

>>> endpoint_result("CC(C)c1cccc(C(C)C)c1OC(=O)OCCO[C@@H]1O[C@H](CO)[C@@H](OC2O[C@H](CO)[C@@H](O)[C@H](O)[C@H]2O)[C@H](O)[C@H]1O (some centres unmarked)")
"> 20 mM"

Moving on to another molecule below.
### Prompt Which solubility reading was recorded for the molecule CC(C)c1cccc(C(C)C)c1OC(=O)OCCCO[C@@H]1O[C@H](CO)[C@@H](OC2O[C@H](CO)[C@@H](O)[C@H](O)[C@H]2O)[C@H](O)[C@H]1O (some centres unmarked) ?
### Response > 20 mM

---

Reported AUClast is given for each of the following compounds.
Assay: Pharmacokinetics: plasma concentrations of prodrug and propofol after intravenous infusion (LC/MS/MS)
Details: analyte = administered compound; to last detected concentration
The reply should be a number in µM·h, with the unit left off.

Guide cases for AUClast, answers given:
>>> endpoint_result("CC(C)c1cccc(C(C)C)c1OC(=O)OCCCO[C@H]1O[C@H](CO)[C@@H](O)[C@H](O)[C@H]1O [Compound 33]")
0.00304
>>> endpoint_result("CC(C)c1cccc(C(C)C)c1OC(=O)OCCCO[C@@H]1O[C@H](CO)[C@@H](OC2O[C@H](CO)[C@@H](O)[C@H](O)[C@H]2O)[C@H](O)[C@H]1O (stereo partly shown) [Compound 25]")
8.571
>>> endpoint_result("CC(C)c1cccc(C(C)C)c1OC(=O)OCCO[C@H]1O[C@H](CO)[C@@H](O)[C@H](O)[C@H]1O [Compound 32]")
0.000657
>>> endpoint_result("CC(C)c1cccc(C(C)C)c1OC(=O)NCCO[C@@H]1O[C@H](CO)[C@@H](O)[C@H](O)[C@H]1O [Compound 17]")
61.644
>>> endpoint_result("CC(C)c1cccc(C(C)C)c1OC(=O)OCCO[C@@H]1O[C@H](CO)[C@@H](OC2O[C@H](CO)[C@@H](O)[C@H](O)[C@H]2O)[C@H](O)[C@H]1O (stereo partly shown) [Compound 24]")
0.786
>>> endpoint_result("CC(C)c1cccc(C(C)C)c1OC(=O)OCCCO[C@@H]1O[C@H](CO)[C@@H](O)[C@H](O)[C@H]1O [Compound 12]")
0.000773

Moving on to another compound below.
### Prompt Which AUClast reading was recorded for the compound CC(C)c1cccc(C(C)C)c1O [Propofol, 2,6-diisopropylphenol, reference compound] ?
### Response 10.576

Source of measurements: patent US9023813B2
